test system: Mus musculus; experiment: In vivo percent increase in seizure threshold in mouse MEST model 1 hour following 10 mg/kg p.o.; conditions: at 10 mg/kg
measurement kind: Increase

INSERT INTO assay_data (smiles_str, measurement_kind, result) VALUES
  ('CC(=O)c1ccc2c(c1)[C@H](NC(=O)c1ccsc1Cl)[C@@H](O)C(C)(C)O2', 'Increase', '95%'),
  ('CC(=O)c1ccc2c(c1)[C@H](NC(=O)c1c(Cl)cccc1Cl)[C@@H](O)C(C)(C)O2', 'Increase', '10%'),
  ('CC(=O)c1ccc2c(c1)[C@H](NC(=O)c1cnccn1)[C@@H](O)C(C)(C)O2', 'Increase', '15%'),
  ('CC(=O)c1ccc2c(c1)[C@H](NC(=O)c1ccsc1)[C@@H](O)C(C)(C)O2', 'Increase', '50%'),
  ('CC(=O)c1ccc2c(c1)[C@H](NC(=O)c1cccc(Cl)c1)[C@@H](O)C(C)(C)O2', 'Increase', '90%'),
  ('CC(=O)c1ccc2c(c1)[C@H](NC(=O)c1cccnc1)[C@@H](O)C(C)(C)O2', 'Increase', '30%'),
  ('CC(=O)c1ccc2c(c1)[C@H](NC(=O)c1cccc(Cl)c1)[C@H](O)C(C)(C)O2', 'Increase', '93%');
